- Test system: Pfeiffer cells
- Protocol details: Cell proliferation test (cell counting kit-8, 6 days)
- Assay type: cell-based
- Details: Homo sapiens, Pfeiffer, 144 h, 6 days' growth
Please respond with reported pIC50 for every item in the list.
Numbers only, as −log10 of the molar value.

A selection of reference data follows.
INSERT INTO measurements (compound, meas_value) VALUES
  ('CCN(c1cc(-c2cnc(CN3CCOCC3)nc2)cc2c(NCc3c(C)cc(C)[nH]c3=O)nccc12)C1CCOCC1', 6.19),
  ('CCN(c1cc(-c2cnc(CN3CCN(C)CC3)c(F)c2)cc2c(NCc3c(C)cc(C)[nH]c3=O)nccc12)C1CCOCC1', 6.28),
  ('CCN(c1cc(-c2ccc(CN(C)C)cc2)cc2c(NCc3c(C)cc(C)[nH]c3=O)nccc12)C1CCC(N(C)C)CC1 (stereo not drawn)', 6.22),
  ('CCOc1cc(N(CC)C2CCC(N(C)C)CC2)c2ccnc(NCc3c(C)cc(C)[nH]c3=O)c2n1 (stereo not drawn)', 6.32),
  ('CCN(c1cc(-c2ccc(CN3CCN(C)C(=O)C3)nc2)cc2c(NCc3c(C)cc(C)[nH]c3=O)nccc12)C1CCOCC1', 6.10);

From here, focus on the item given below.
Summary for this compound, Cc1cc(C)c(CNc2nccc3c(N(C)C4CCC(N(C)C)CC4)cc(-c4ccc(N5CCN(C)CC5)nc4)cc23)c(=O)[nH]1 (stereo not drawn) : pIC50 is 6.32

Numbers sourced from patent US20200262813A1.
